Each recorded value in this set is attributed to patent US9510598B2.

# % of efficacy (protection) listing for each entry below
# Tested on: Botrytis cinerea
# test-name: In vivo preventive test on Botrytis cinerea (grey mould)
# settings: 500 ppm; gherkin plants sprayed 24 hours before contamination; grading 4-5 days after contamination vs control plants
Response body: numeric value in %, unit text excluded.

The examples below pair each entry with its known result.
> print(dat)
                                   molecule  val
1  C#Cc1cnc2ccc(C3=NOC(C(=O)NCc4cn(CC)nc4C)(C(F)F)C3)cc2c1 (centres unmarked) [compound 613]  100
2  CCn1cc(CNC(=O)C2(C3CC3)CC(c3ccc4ncc(Br)cc4c3)=NO2)c(C)n1 (centres unmarked) [compound 268]   93
3  C#Cc1cnc2ccc(C3=NOC(C)(C(=O)NCc4c(C)nn(CC)c4C)C3)cc2c1 (centres unmarked) [compound 87]   97
4  C#Cc1cnc2c(C)cc(C3=NOC(C)(C(=O)NCc4cn(CCC)nc4C)C3)cc2c1 (centres unmarked) [compound 533]  100
5  CCc1cnc2ccc(C3=NOC(C)(C(=O)NC(C)C)C3)cc2c1 (centres unmarked) [Compound No. 259]   75

Please fill in: % of efficacy (protection) reported for C#Cc1cnc2ccc(C3=NOC(C)(C(=O)NCc4cnn(C)c4)C3)cc2c1 (centres unmarked) [compound 180] = 95

// sample CCn1cc(CNC(=O)C2(OC)CC(c3ccc4ncc(Br)cc4c3)=NO2)c(C)n1 (centres unmarked) [compound 47] , its % of efficacy (protection) was 95

Lookup result for C#Cc1cnc2ccc(C3=NOC(C)(C(=O)NCC)C3)cc2c1 (centres unmarked) [compound 527] ; measured % of efficacy (protection): 100

----------
# settings: Table 2, formula (II); method [a]: pH 2.7, 0.1% formic acid in water / acetonitrile gradient
parameter-measured: Log P

> print(dat)
                                    compound      val
 1  COC(=O)C1(C2CC2)CC(c2ccc3ncc(Br)cc3c2)=NO1 (racemic)  3.27[a]
 2  C#Cc1cc2cc(C3=NOC(C)(C(=O)O)C3)ccc2nc1Cl (stereo not drawn)  2.24[a]
 3  CC1(C(=O)O)CC(c2ccc3nc(Cl)c(I)cc3c2)=NO1 (stereo not drawn)  2.59[a]
 4  COC(=O)C1(C)CC(c2ccc3ncc(C#C[Si](C)(C)C)cc3c2)=NO1 (stereo not drawn)  4.31[a]
 5  O=C(O)C1(CC2CC2)CC(c2ccc3ncc(Br)cc3c2)=NO1 (stereo not drawn)  2.70[a]
 6  O=C(O)C1(C(F)(F)F)CC(c2cc3cc(Br)cnc3c(F)c2F)=NO1 (racemic)  2.01[a]
 7  C#Cc1cnc2c(C)cc(C3=NOC(OC)(C(=O)OCC)C3)cc2c1 (stereo not drawn)  3.46[a]
 8  CC(C)OC(=O)C1(C)CC(c2ccc3ncc(Br)cc3c2)=NO1 (stereo not drawn)  3.53[a]
 9  CCOC(=O)C1(CF)CC(c2ccc3ncc(Br)cc3c2)=NO1 (stereo not drawn)  3.13[a]
10  C=C(C)C1(C(=O)OC)CC(c2ccc3ncc(Br)cc3c2)=NO1 (stereo not drawn)  3.44[a]

Log P recorded for this compound, O=C(O)C1(C2CC2)CC(c2ccc3ncc(Br)cc3c2)=NO1 (stereo not drawn) , is 2.43[a]

# Log P of O=C(O)C1(C(F)(F)F)CC(c2ccc3ncc(Br)cc3c2)=NO1 (racemic) = 1.85[a]

Looking up C=C(Cl)C1(C(=O)OC)CC(c2ccc3ncc(Br)cc3c2)=NO1 (stereo not drawn) , I found its Log P recorded as 3.68[a]

Consider O=C(O)C1(CCl)CC(c2ccc3ncc(Br)cc3c2)=NO1 (racemic) . Its measured Log P is 2.11[a]

The compound C#Cc1cnc2ccc(C3=NOC(C)(C(=O)O)C3)cc2c1 (racemic) showed Log P equal to 1.71[a]

// sample COC(=O)C1(C)CC(c2ccc3nc(Cl)c(Br)cc3c2)=NO1 (stereo not drawn) , its Log P was 3.74[a]

The reported Log P of the compound CSC1(C(=O)O)CC(c2ccc3ncc(Br)cc3c2)=NO1 (stereo not drawn) was 2.01[a]

So, C#Cc1cnc2c(Cl)cc(C3=NOC(C)(C(=O)O)C3)cc2c1 (stereo not drawn) ? Its Log P was 2.20[a]

----------
# System: Septoria tritici
# test-name: In vivo preventive test on Septoria tritici (leaf spot on wheat)
# settings: 500 ppm; wheat plants sprayed 24 hours before contamination; grading 21 to 28 days after contamination vs control plants
# Description: Wheat plants (“Scipion” variety), sown in starter cups on a 50/50 peat soil-pozzolana substrate and grown at 22° C. (12 h)/20° C. (12 h), are treated at the 1-leaf stage (10 cm height) by spraying with the active ingredient prepared as described above. Plants, used as controls, are treated with the mixture of acetone/tween/DMSO/water not containing the active material. […]
parameter-measured: % of efficacy (protection)
Give your result as the value with the unit written after it.

Previously resolved entries follow.
> print(dat)
                                   compound          parameter.measured   val
1  CC(NC(=O)C1(C)CC(c2ccc3ncc(Br)cc3c2)=NO1)c1ccccc1 (stereo not drawn)  % of efficacy (protection)   96%
2  CCc1cnc2ccc(C3=NOC(C)(C(=O)NCc4cn(CC)nc4C)C3)cc2c1 (stereo not drawn)  % of efficacy (protection)  100%

Consider now this further compound.
The reported % of efficacy (protection) of the compound C#Cc1cnc2ccc(C3=NOC(OC)(C(=O)NC4CCC4)C3)cc2c1 (racemic) was 100%

----------
# Tested on: Botrytis cinerea
# test-name: In vivo preventive test on Botrytis cinerea (grey mould)
# settings: 500 ppm; gherkin plants sprayed 24 hours before contamination; grading 4-5 days after contamination vs control plants
parameter-measured: % of efficacy (protection)

Check out these entries, answers already filled in.
> print(dat)
                                   compound       test.system          parameter.measured   val
1  C=CC1(C(=O)NCC2COC(C)(C)O2)CC(c2ccc3ncc(I)cc3c2)=NO1 (stereo not drawn)  Botrytis cinerea  % of efficacy (protection)   97%
2  C#Cc1cnc2ccc(C3=NOC(C)(C(=O)NCc4cccs4)C3)cc2c1 (stereo not drawn)  Botrytis cinerea  % of efficacy (protection)   99%
3  C#Cc1cnc2c(Cl)cc(C3=NOC(C)(C(=O)NCCCOCC)C3)cc2c1 (racemic)  Botrytis cinerea  % of efficacy (protection)  100%
4  CCCn1cc(CNC(=O)C2(CC)CC(c3ccc4ncc(Br)cc4c3)=NO2)c(C)n1 (stereo not drawn)  Botrytis cinerea  % of efficacy (protection)   85%
5  CCCn1cc(CNC(=O)C2(C)CC(c3ccc4ncc(I)cc4c3)=NO2)c(C)n1 (stereo not drawn)  Botrytis cinerea  % of efficacy (protection)   98%

Now let's try a different one.
Simply: C#Cc1cnc2ccc(C3=NOC(OC)(C(=O)NC4CC4)C3)cc2c1 (stereo not drawn) , Botrytis cinerea, % of efficacy (protection) = 99%

----------
# Format: physicochemical
# settings: HPLC on reversed phase columns, method [a]: pH 2.7, 0.1% formic acid in water / acetonitrile, linear gradient 10% to 95% acetonitrile
parameter-measured: log P

Below: 5 compounds and their reported log P.
> print(dat)
                                   compound  parameter.measured       val
1  CCCSc1cnc2ccc(C3=NOC(C)(C(=O)NC(C)C)C3)cc2c1 (centres unmarked)               log P  3.26^[a]
2  C#Cc1cnc2ccc(C3=NOC(C)(C(=O)NC(C)(C)C)C3)cc2c1 (centres unmarked)               log P   3.00[a]
3  C#Cc1cnc2ccc(C3=NOC(C)(C(=O)NCC4CCCN4CC)C3)cc2c1 (centres unmarked)               log P  1.22^[a]
4  COc1cnccc1CNC(=O)C1(C)CC(c2ccc3ncc(Br)cc3c2)=NO1 (centres unmarked)               log P   1.56[a]
5  C#Cc1cnc2ccc(C3=NOC(C)(C(=O)NC)C3)cc2c1 (centres unmarked)               log P   1.84[a]

response.value for CC(NC(=O)C1(C)CC(c2ccc3ncc(Br)cc3c2)=NO1)c1ccc(Cl)cc1 (centres unmarked) (field: log P) = 3.87[a]

Noted for C#Cc1cnc2ccc(C3=NOC(C)(C(=O)NC4CC4)C3)cc2c1 (centres unmarked) : its log P reads 2.13[a]

GET /value?item= C#Cc1cnc2ccc(C3=NOC(C)(C(=O)Nc4cn(CC)nc4C)C3)cc2c1 (centres unmarked) &field=log P returns 2.26[a]

Entry CCn1cc(CNC(=O)C2(OC)CC(c3cc(Cl)c4ncc(Br)cc4c3)=NO2)c(C)n1 (centres unmarked) — recorded log P = 2.78[a]

# log P (compound: C#Cc1cnc2ccc(C3=NOC(C)(C(=O)NCc4ccc5ccoc5c4)C3)cc2c1 (centres unmarked) ) is 3^[a]

For C#Cc1cnc2ccc(C3=NOC(C)(C(=O)NC(C)c4nc(C(C)C)no4)C3)cc2c1 (centres unmarked) the compound record lists log P as 2.94[a]
